System Under Test: CDK9/Cyclin T1 (Homo sapiens)
Sequence (P50750 whole entry): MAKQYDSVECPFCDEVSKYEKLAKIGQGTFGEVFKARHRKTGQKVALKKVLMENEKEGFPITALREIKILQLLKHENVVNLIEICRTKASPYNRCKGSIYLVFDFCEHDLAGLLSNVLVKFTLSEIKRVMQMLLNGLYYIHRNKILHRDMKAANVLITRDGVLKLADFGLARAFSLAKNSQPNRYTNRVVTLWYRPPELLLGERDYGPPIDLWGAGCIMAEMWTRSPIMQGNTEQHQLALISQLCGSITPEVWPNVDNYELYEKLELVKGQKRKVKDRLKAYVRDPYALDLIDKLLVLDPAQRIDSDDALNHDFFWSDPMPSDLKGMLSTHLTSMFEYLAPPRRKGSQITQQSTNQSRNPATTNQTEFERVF
Sequence (O60563 whole entry partner): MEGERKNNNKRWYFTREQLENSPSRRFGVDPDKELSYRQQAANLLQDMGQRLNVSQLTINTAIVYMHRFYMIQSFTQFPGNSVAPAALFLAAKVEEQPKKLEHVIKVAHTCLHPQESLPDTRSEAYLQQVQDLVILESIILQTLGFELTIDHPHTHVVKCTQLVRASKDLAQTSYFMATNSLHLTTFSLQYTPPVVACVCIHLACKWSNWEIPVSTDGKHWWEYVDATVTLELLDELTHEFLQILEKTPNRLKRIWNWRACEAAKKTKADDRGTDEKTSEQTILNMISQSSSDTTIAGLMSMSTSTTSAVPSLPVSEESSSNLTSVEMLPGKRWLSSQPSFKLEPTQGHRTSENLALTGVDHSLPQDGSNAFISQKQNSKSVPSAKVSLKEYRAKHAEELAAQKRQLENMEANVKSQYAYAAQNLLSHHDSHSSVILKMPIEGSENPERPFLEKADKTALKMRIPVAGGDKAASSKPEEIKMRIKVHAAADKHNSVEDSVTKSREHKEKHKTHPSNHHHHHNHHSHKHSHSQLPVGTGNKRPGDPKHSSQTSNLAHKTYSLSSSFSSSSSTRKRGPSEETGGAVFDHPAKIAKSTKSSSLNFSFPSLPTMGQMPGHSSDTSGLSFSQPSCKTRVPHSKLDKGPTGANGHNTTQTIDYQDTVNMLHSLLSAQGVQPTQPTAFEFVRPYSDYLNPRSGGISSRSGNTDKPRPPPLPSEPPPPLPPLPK
Measurement Notes: CDK9 enzyme protocol (LANCE ULight TR-FRET kinase assay)
Test Context: 4 nM CDK9/Cyclin T1, 1000 μM ATP, 100 nM U-light MBP peptide, 30 minutes
pIC50: −log10 of the molar value.
pIC50 below 7 gives 0 (no); pIC50 at or above it gives 1 (yes).

Field: example entries. Status: answers known.
1) COc1ccc(F)cc1-c1ncnc2[nH]c(C3=CCN(C4CCC(C(=O)O)CC4)CC3)cc12 (centres unmarked)    0 (no)
2) COc1ccc(F)cc1-c1ncnc2[nH]c(C3=CCN(Cc4ccccc4)CC3)cc12    1 (yes)
3) COc1ccc(F)cc1-c1ncnc2[nH]c(C3=CCN(C(C)=O)CC3)cc12    1 (yes)
4) COc1ccc(F)cc1-c1ncnc2[nH]c(C3=CCC(N[C@H](C(=O)O)C(C)(C)C)CC3)cc12 (some centres unmarked)    0 (no)

[Q] Say whether `COc1ccc(F)cc1-c1ncnc2[nH]c(C3=CCN(Cc4cccnc4)CC3)cc12` shows pIC50 of 7 or more.
[A] 0 (no)

[Q] Another compound: `CS(=O)(=O)N1CC=C(c2cc3c(-c4ccccc4C(F)(F)F)ncnc3[nH]2)CC1`
[A] 0 (no)
